src = ChEMBL document CHEMBL1201862

- System: SN12C
- Assay comment: NCI tumour cell line growth inhibition, 48 h
The source made the active and inactive calls. Cut-off read from the data, not from the text of the source: active = GI50 up to about 1.1 µM and inactive = higher.
Measurement name: GI50

Consider the reported GI50 for these molecules:
COc1cc(C(C)c2cc3c(cc2OCCCCOc2cc4c(cc2C(C)c2cc(OC)c(OC)c(OC)c2)OCO4)OCO3)cc(OC)c1OC (stereo unspecified) = 29.6 µM (inactive)
CCC(C)NC1=NCC(C)S1 (stereo unspecified) = > 100 µM (inactive)
CCC1(c2ccccc2)Sc2ccccc2-n2cccc2C1=O (stereo unspecified) = > 10 µM (inactive)
COc1cccc(-c2nccc3c(OCc4ccccc4)c(OC)c(OC)cc23)c1 = 7.67 µM (inactive)
C=C(C)C(=O)OC1C(C(C)CCCO)=C(CO)CC2OC(=O)C(=C)C21 (stereo unspecified) = 16.1 µM (inactive)

In plain terms, CCOC(=O)C1=C(C)N(NC(=O)c2ccccc2)C2(O)CCCC12C(=O)OCC (stereo unspecified) has a documented GI50 of > 100 µM (inactive)

The molecule listed as CCCCC#COS(=O)(=O)c1ccc(C)cc1 has a reported GI50 of > 100 µM (inactive)
